Tested on: foxtail, giant
Experiment: Test C postemergence
Type: in vivo, Setaria faberii
Settings: postemergence, 250 g ai/ha; scale 0 to 100 (0 no effect, 100 complete control)
assay metric: Plant response rating, Foxtail, Giant
Answers are plain numbers.

A selection of reference data follows.
>>> measured_number("CCCc1cc(C(=O)NC(C)C)nn1Cc1ccnc(C(F)(F)F)c1 [Compound 186]")
75
>>> measured_number("CCc1cc(C(=O)NC2CC2)nn1Cc1ccnc(Br)c1 [Compound 220]")
5
>>> measured_number("CCc1cc(C(=O)NCC(F)(F)F)nn1Cc1cccc(OC(F)(F)F)c1 [Compound 20]")
15

Answer for every listed entry: what is its Plant response rating, Foxtail, Giant? The entries follow.
1. CCCNC(=O)c1cc(CC)n(Cc2cccc(OC(F)(F)F)c2)n1 [Compound 27]
2. CCONC(=O)c1cc(CC)n(Cc2ccnc(OC(F)F)c2)n1 [Compound 131]
3. CCCc1cc(C(=O)NC2CC2)nn1Cc1ccnc(OC(F)F)c1 [Compound 205]
4. CCCNC(=O)c1cc(CC)n(Cc2nc(C(F)(F)F)nn2C)n1 [Compound 109]

20
50
65
50

Give its Plant response rating, Foxtail, Giant value. Item: O=C(NC1CC1)c1cc(CCCl)n(Cc2ccnc(C(F)(F)F)c2)n1 [Compound 144]
25
